Experiment: HTB85 osteosarcoma cell growth inhibition, synergistic combos for chromothripsis tumors, BGB or cisplatin IC20 combos (AID 1671453);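 also: cells exposed for 96 hours before readout; 0% = vehicle DMSO and 100% = high DMSO killing control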
Details: HTB85 osteosarcoma cells, drug combinations, measured here: with BGB IC20, at 0.5 µM, stronger effect = higher value
metric name: inhibition (%)
Provide the reading as a plain figure in %.

smiles input	inhibition, %
O=c1cc(-c2cccc3c2Sc2ccccc2S3)oc(N2CCOCC2)c1	-13.9
CO[C@H]1/C=C/O[C@@]2(C)Oc3c(C)c(O)c4c(O)c(c(C=NN5CCN(C)CC5)c(O)c4c3C2=O)NC(=O)/C(C)=C\C=C\[C@H](C)[C@H](O)[C@@H](C)[C@@H](O)[C@@H](C)[C@H](OC(C)=O)[C@@H]1C	-34.1
CCc1c2c(nc3ccc(O)cc13)-c1cc3c(c(=O)n1C2)COC(=O)[C@]3(O)CC	96.1

Problem: Any idea what its inhibition is? The compound is CC(C)N=c1cc2n(-c3ccc(Cl)cc3)c3ccccc3nc-2cc1Nc1ccc(Cl)cc1
Result: -54.6

Problem: Any idea what its inhibition is? The compound is O=C(Nc1ccncc1)c1cc([N+](=O)[O-])ccc1Cl
Result: -10.2
